assay: Pharmacokinetic parameters following intravenous and oral administration in dogs; assay type: in vivo, female beagles; conditions: female, beagle, dog, plasma, intravenous administration (i.v.)
Structures can show the parent of a compound that is named as a salt.
OUTCOME MEASURE: MRT
Kindly write the number and append the unit.

Worked examples, 2 molecules total:
CC(C)CN1CCN(c2ccc(-c3ccc(Cl)cc3N3CCCC(n4ncc(C(=O)O)c4C(F)(F)F)C3)cc2)CC1 (single isomer, unassigned) [Example 9, hydrochloride] = 10.3 h
O=C(O)c1cnn(-c2cccc(-c3cc(Cl)ccc3-c3ccc(N4CCN(CC5CC5)CC4)cc3)n2)c1C(F)(F)F [Comparative Example 174 (WO2012/058132), reference compound] = 7.23 h

Query :: Can you share its MRT? I mean this molecule: CC(C)CN1CCN(c2ccc(-c3ccc(Cl)cc3N3CCC[C@@H](n4ncc(C(=O)O)c4C(F)F)C3)cc2)CC1 (single isomer, unassigned)
Result :: 25.6 h
